Measured values drawn from patent US20230279115A1 for this set.

# assayed target: T1, human PD-L1 recombinant protein (human, UniProt Q9NZQ7 19-238)
# T1 construct: also called recombinant PD-L1 protein; recombinant PD-L1
# T1 sequence (Q9NZQ7 19-238 limits assumed): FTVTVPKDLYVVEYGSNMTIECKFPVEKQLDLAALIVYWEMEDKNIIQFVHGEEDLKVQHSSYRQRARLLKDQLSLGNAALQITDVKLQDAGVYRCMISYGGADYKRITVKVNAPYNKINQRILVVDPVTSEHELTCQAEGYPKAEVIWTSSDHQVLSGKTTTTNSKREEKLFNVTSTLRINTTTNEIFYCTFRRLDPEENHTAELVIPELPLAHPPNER
# test method notes: BLI (method per paragraph 89); target not given, taken as human PD-L1 recombinant protein
measured metric: Kd (nM)
Supply the numeric figure in nM, leaving out any unit text.

{"binder": "hzF2-m12 (VHH, Framework 2 is KEREG; also called humanized single variable domain antibody hzF2-m12) VHH: EVQLVESGGGLVQPGGSLRLSCAASRDSDEGASCMGWFRQAPGKEREGVAIIFNVGERTDYGDSVKGRFTISRDNAKNTLYLQMNSLRAEDTAVYYCATVWCGSWVARSWGQGTLVTVSS", "Kd, nM": 1.54}
{"binder": "hzF2-m14 (VHH, Framework 2 is KEREG; also called humanized single variable domain antibody hzF2-m14) VHH: EVQLVESGGGLVQPGGSLRLSCAASRDSDEGASCMGWFRQAPGKEREGVAIIFNVGERTDYGDSVKGRFTISRDNAKNTLYLQMNSLRAEDTAVYYCATVYCGSYVARSWGQGTLVTVSS", "Kd, nM": 3.81}
{"binder": "hzF2-m2 (VHH, The parent hzF2 is a VHH-human IgG1 Fc fusion; also called humanized single variable domain antibody hzF2-m2) VHH: EVQLVESGGGLVQPGGSLRLSCAASGDSDDGASCMGWFRQAPGKGLEGVAIIFNAGERTDYGDSVKGRFTISRDNAKNTLYLQMNSLRAEDTAVYYCATVWCGSWVARSWGQGTLVTVSS", "Kd, nM": 1.26}
{"binder": "hzF2-m8 (VHH, also called humanized single variable domain antibody hzF2-m8) VHH: EVQLVESGGGLVQPGGSLRLSCAASRDSDDGASCMGWFRQAPGKEREGVAIIFNVGERTDYGDSVKGRFTISRDNAKNTLYLQMNSLRAEDTAVYYCATVWCGSWVARSWGQGTLVTVSS", "Kd, nM": 1.18}
{"binder": "hzF2-m7 (VHH, The parent hzF2 is a VHH-human IgG1 Fc fusion; also called humanized single variable domain antibody hzF2-m7) VHH: EVQLVESGGGLVQPGGSLRLSCAASRDSDDSASCMGWFRQAPGKGLEGVAIIFNAGERTDYGDSVKGRFTISRDNAKNTLYLQMNSLRAEDTAVYYCATVWCGSWVARSWGQGTLVTVSS", "Kd, nM": 4.59}

# next binder below
Enquiry: Can you share its Kd? I mean this binder: hzF2-m11 (VHH, Framework 2 is KEREG; also called humanized single variable domain antibody hzF2-m11) VHH: EVQLVESGGGLVQPGGSLRLSCAASRDSDDGASCMGWFRQAPGKEREGVAIIFNAGERTDYGDSVKGRFTISRDNAKNTLYLQMNSLRAEDTAVYYCATVYCGSYVARSWGQGTLVTVSS
Return: 3.24
